A collection of substances and their measured % cells in cell cycle phase: G2/M
# System: HeLa cells
# ASSAY_PROTOCOL: Cell cycle assay in HeLa cells
# Assay type: cell-based, human
# CONDITION_LABEL: HeLa cells, 150 nM oligomeric compound, 48 hours after treatment; relative to untreated control (UTC=100)
In the oligonucleotide strings, read from the 5' end, every base follows the letter of its sugar. An asterisk marks phosphorothioate; unmarked linkages are phosphodiester. Other units and linkages are bracketed, terminal groups are in braces. A string of capitals states the bases alone. e = 2'-O-(2-methoxyethyl) (MOE); [5mC] = 5-methylcytosine; d = 2'-deoxy (DNA)
Give the value in % but do not write % after it.

Field: example entries. Status: answers known.
341785 (antisense GGAGTGAAGACACGGAGCCAGA; all 2'-MOE, all phosphorothioate, methylation of C not given here) [compound 341785] | 116
338826 (antisense CGGATCCTGTTACCTCACCA; all 2'-MOE, all phosphorothioate, methylation of C not given here) [compound 338826] | 182
328362 (eT*eG*eT*eG*eT*dT*dT*dT*d[5mC]*dT*dG*dA*d[5mC]*dT*d[5mC]*eA*eG*eT*e[5mC]*eA) [compound 328362] | 108

Answer with the recorded % cells in cell cycle phase: G2/M for the substance listed here: 338750 (antisense TCCGCGGGGGCGGGGAGGCT; all 2'-MOE, all phosphorothioate, methylation of C not given here) [compound 338750] 103

Answer with the recorded % cells in cell cycle phase: G2/M for the substance listed here: 328687 (eG*e[5mC]*eT*eT*e[5mC]*d[5mC]*d[5mC]*dA*dG*d[5mC]*dG*dG*d[5mC]*d[5mC]*dT*eA*eT*eA*eG*eT; antisense) [compound 328687] 131

Answer with the recorded % cells in cell cycle phase: G2/M for the substance listed here: 338666 (antisense TCACGTGGAGAGGAGTTAAA; all 2'-MOE, all phosphorothioate, methylation of C not given here) [compound 338666] 217

Answer with the recorded % cells in cell cycle phase: G2/M for the substance listed here: 327910 (antisense eT*eG*eA*eT*eA*eG*e[5mC]*e[5mC]*e[5mC]*eT*eG*eT*eA*e[5mC]*eA*eA*eT*eG*e[5mC]*eT*eG*e[5mC]*eT) [compound 327910] 111

Answer with the recorded % cells in cell cycle phase: G2/M for the substance listed here: 328388 (eT*e[5mC]*e[5mC]*e[5mC]*eA*dT*dA*dG*d[5mC]*dA*dG*dG*dG*d[5mC]*dA*eG*eA*eG*e[5mC]*e[5mC]; antisense) [compound 328388] 102

Answer with the recorded % cells in cell cycle phase: G2/M for the substance listed here: 328724 (antisense eG*eA*e[5mC]*eA*eT*d[5mC]*dA*dT*dG*dT*dG*dA*dT*dT*dT*eG*e[5mC]*eT*e[5mC]*eA) [compound 328724] 140

Answer with the recorded % cells in cell cycle phase: G2/M for the substance listed here: 327878 (antisense e[5mC]*eT*eA*eG*eT*eG*eG*eT*e[5mC]*e[5mC]*eT*eA*eA*eA*e[5mC]*eA*eT*eT*eT*e[5mC]*eA*e[5mC]) [compound 327878] 114

Answer with the recorded % cells in cell cycle phase: G2/M for the substance listed here: 327919 (antisense eG*eA*eA*eA*e[5mC]*e[5mC]*e[5mC]*eA*eG*e[5mC]*eA*eG*eA*e[5mC]*eA*eA*eT*eG*eT*eA*eG*e[5mC]*eT) [compound 327919] 139

###

# System: HeLa cells
# ASSAY_PROTOCOL: Cell cycle assay in HeLa cells
# Type: cell-based, human
# CONDITION_LABEL: HeLa cells, 150 nM oligomeric compound, 48 hours after treatment; relative to untreated control (UTC=100)
In the oligonucleotide strings, read from the 5' end, every base follows the letter of its sugar. An asterisk marks phosphorothioate; unmarked linkages are phosphodiester. Other units and linkages are bracketed, terminal groups are in braces. A string of capitals states the bases alone. e = 2'-O-(2-methoxyethyl) (MOE); [5mC] = 5-methylcytosine; d = 2'-deoxy (DNA)
A collection of substances and their measured % cells in cell cycle phase: subG1
Give the value in % but do not write % after it.

Field: example entries. Status: answers known.
328759 (antisense eG*eA*eG*eG*eG*dA*dT*dT*dG*dT*dA*dT*dG*dA*dA*e[5mC]*eA*eT*e[5mC]*eT) [compound 328759] | 1744
327885 (antisense eA*e[5mC]*eT*eA*e[5mC]*e[5mC]*eT*eG*e[5mC]*eA*e[5mC]*eT*eG*eT*eA*eA*eG*e[5mC]*eA*e[5mC]*eT*eT*eT*eG) [compound 327885] | 456
340350 (antisense TGCTCAATAAATACCCGTTGAA; all 2'-MOE, all phosphorothioate, methylation of C not given here) [compound 340350] | 1144
328421 (antisense eG*e[5mC]*eT*eT*eA*dG*d[5mC]*dT*dG*dT*dG*dT*d[5mC]*dT*dT*eA*e[5mC]*eA*eG*e[5mC]) [compound 328421] | 1103

Answer with the recorded % cells in cell cycle phase: subG1 for the substance listed here: 328707 (eG*e[5mC]*eA*eA*e[5mC]*dA*dG*dG*d[5mC]*d[5mC]*dT*d[5mC]*dA*dA*dT*eA*eT*e[5mC]*eT*eT) [compound 328707] 1486

###

# Tested on: BJ cells
# ASSAY_PROTOCOL: Cell cycle assay in BJ cells
# Type: cell-based, human
# CONDITION_LABEL: 200 nM, 48 hours, relative to untreated control
# Procedure: BJ cells were routinely cultured in MEM high glucose with 2 mM L-glutamine and Earle's BSS adjusted to contain 1.5 g/L sodium bicarbonate and supplemented with 10% fetal bovine serum, 0.1 mM non-essential amino acids and 1.0 mM sodium pyruvate (all media and supplements from Invitrogen Life Technologies, Carlsbad, Calif.). […]
In the oligonucleotide strings, read from the 5' end, every base follows the letter of its sugar. An asterisk marks phosphorothioate; unmarked linkages are phosphodiester. Other units and linkages are bracketed, terminal groups are in braces. A string of capitals states the bases alone. e = 2'-O-(2-methoxyethyl) (MOE); [5mC] = 5-methylcytosine; d = 2'-deoxy (DNA)
A collection of substances and their measured % cells in cell cycle phase G2/M
Give the value in % but do not write % after it.

Field: example entries. Status: answers known.
328744 (antisense e[5mC]*eG*eG*eA*eT*d[5mC]*d[5mC]*dT*dG*dT*dT*dA*d[5mC]*d[5mC]*dT*e[5mC]*eA*e[5mC]*e[5mC]*eA) [compound 328744] | 127
345395 (AAGGGATTCCTGGGAAAACTGGAC; sugars from the 5' end e5 d10 e9, all phosphorothioate, methylation of C not given here) [compound 345395] | 104
327902 (antisense eG*eG*e[5mC]*eT*eG*eT*e[5mC]*eA*eA*eT*eT*e[5mC]*eA*eT*eA*eG*eG*eT*e[5mC]*eA*eG) [compound 327902] | 108
25691 (antisense eG*e[5mC]*e[5mC]*eA*eA*dG*dG*d[5mC]*dG*dT*dG*dA*d[5mC]*dA*dT*eG*eA*eT*eA*eT) [compound 25691] | 125
327905 (antisense e[5mC]*eA*eG*eA*e[5mC]*eT*e[5mC]*e[5mC]*eG*eG*eT*eG*eG*eA*eA*eT*eG*eA*eA*eG*eG*eA) [compound 327905] | 109

For BJ cells, give the measured % cells in cell cycle phase G2/M of the entry 328403 (antisense eA*eG*eG*e[5mC]*e[5mC]*dT*dA*dT*dT*d[5mC]*d[5mC]*dT*dG*dT*dA*eG*e[5mC]*eA*eA*eA) [compound 328403] 92

For BJ cells, give the measured % cells in cell cycle phase G2/M of the entry 328759 (antisense eG*eA*eG*eG*eG*dA*dT*dT*dG*dT*dA*dT*dG*dA*dA*e[5mC]*eA*eT*e[5mC]*eT) [compound 328759] 141

###

# System: adipocytes
# ASSAY_PROTOCOL: Triglyceride accumulation assay in adipocytes
# Assay type: cell-based, human
# CONDITION_LABEL: differentiating adipocytes transfected with oligomeric compound; Table 75
In the oligonucleotide strings, read from the 5' end, every base follows the letter of its sugar. An asterisk marks phosphorothioate; unmarked linkages are phosphodiester. Other units and linkages are bracketed, terminal groups are in braces. A string of capitals states the bases alone. e = 2'-O-(2-methoxyethyl) (MOE); [5mC] = 5-methylcytosine
TEST_READOUT: TG (triglyceride accumulation)

Field: example entries. Status: answers known.
327897 (antisense eA*e[5mC]*eA*eG*eG*e[5mC]*e[5mC]*eG*eG*eG*eA*e[5mC]*eA*eA*eG*eT*eG*e[5mC]*eA*eA*eT*eA) [compound 327897] | 28 percentage of untreated control (UTC)
327964 (antisense e[5mC]*e[5mC]*eA*eA*eG*eT*eT*e[5mC]*eT*eG*eT*e[5mC]*eA*eT*eG*e[5mC]*eA*e[5mC]*eT*eG*eA) [compound 327964] | 60 percentage of untreated control (UTC)

Field: next substance
For adipocytes, give the measured TG (triglyceride accumulation) of the entry 327910 (antisense eT*eG*eA*eT*eA*eG*e[5mC]*e[5mC]*e[5mC]*eT*eG*eT*eA*e[5mC]*eA*eA*eT*eG*e[5mC]*eT*eG*e[5mC]*eT) [compound 327910] 24 percentage of untreated control (UTC)
